Data origin: paper PMC10754118

System: pig liver esterase (PLE)
assay: Hydrolysis with pig liver esterase (PLE)
Assay type: in vitro ADME
measurementSetup: pig liver esterase (PLE) in PBS, PLE in PBS pH 7.3, 37 °C, read-out: PLE t 1/2 (converted)

| molecule | readoutRelation | half-life at 0.45 mM [min] |
| --- | --- | --- |
| CCCCCCCCCCCCCCCCCCOP(=O)(O)OP(=O)(O)OP(=O)(O)OC[C@H]1O[C@@H](n2cc(/C=C/Br)c(=O)[nH]c2=O)C[C@@H]1O [20g] | > | 9000 |
| CCCCCCCCCCCCCCCCCCP(=O)(OCCCC)OP(=O)(O)OP(=O)(O)OC[C@@H]1C=C[C@H](n2cnc3c(NC4CC4)nc(N)nc32)C1 (some centres unmarked) [10hx] | > | 9000 |
| CCCCCCCCCCCCCCCCCCOP(=O)(OCc1ccc(OC(=O)CCCC)cc1)OP(=O)(O)OP(=O)(O)OCC1OC(n2cc(C)c(=O)[nH]c2=O)CC1N=[N+]=[N-] (centres unmarked) [10by, γ‐(AB‐C4;alkyl‐C18)‐AZTTP] | = | 13.2 |
| CCCCCCCCCCCCCCCCCCP(=O)(OCc1ccc(OC(=O)CCCC)cc1)OP(=O)(O)OP(=O)(O)OC[C@H]1O[C@@H](n2cc(C)c(=O)[nH]c2=O)C[C@@H]1N=[N+]=[N-] (some centres unmarked) [10bz, γ‐(AB‐C4)‐γ‐C‐(alkyl‐C18)‐AZTTP] | = | 15 |
| CCCCCCCCCCCCCCCCCCOP(=O)(O)OP(=O)(O)OP(=O)(O)OC[C@H]1O[C@@H](n2cc(Cl)c(=O)[nH]c2=O)C[C@@H]1F [20d] | > | 9000 |

====

assay: in vitro
measurementSetup: human
Measured half-life at 0.86 mM by item
measurementName: half-life at 0.86 mM

| molecule | measurementName | resultValue |
| --- | --- | --- |
| CCCCCCCCCCCCCCCCCCOP(=O)(OCc1ccc(OC(=O)CCCC)cc1)OP(=O)(O)OP(=O)(O)OCC1OC(n2cc(C)c(=O)[nH]c2=O)CC1N=[N+]=[N-] (stereo not shown) [10by, γ‐(AB‐C4;alkyl‐C18)‐AZTTP] | half-life at 0.86 mM | 3.3 h |
| CCCCCCCCCCCCCCCCCCP(=O)(OCCCC)OP(=O)(O)OP(=O)(O)OC[C@@H]1C=C[C@H](n2cnc3c(NC4CC4)nc(N)nc32)C1 (stereo partly shown) [10hx] | half-life at 0.86 mM | > 10 h |
| CCCCCCCCCCCCCCCCCCOP(=O)(OCCCC)OP(=O)(O)OP(=O)(O)OC[C@H]1O[C@@H](n2cc(Cl)c(=O)[nH]c2=O)C[C@@H]1F (stereo partly shown) [10dv] | half-life at 0.86 mM | > 20 h |
| CCCCCCCCCCCCCCCCCCOP(=O)(OCCCC)OP(=O)(O)OP(=O)(O)OC[C@@H]1C=C[C@H](n2cnc3c(NC4CC4)nc(N)nc32)C1 (stereo partly shown) [10hv, γ‐(C4;C18)‐ABCTP] | half-life at 0.86 mM | 3 h |
| CCCCCCCCCCCCCCCCCCOP(=O)(O)OP(=O)(O)OP(=O)(O)OC[C@@H]1C=C[C@H](n2cnc3c(NC4CC4)nc(N)nc32)C1 [20h, γ‐C18‐ABCTP] | half-life at 0.86 mM | > 10 h |
| CCCCCCCCCCCCCCCCCCOP(=O)(O)OP(=O)(O)OP(=O)(O)OC[C@H]1O[C@@H](n2cc(/C=C/Br)c(=O)[nH]c2=O)C[C@@H]1O [20g] | half-life at 0.86 mM | > 20 h |
| CCCCCCCCCCCCCCCCCCOP(=O)(OCc1ccc(OC(=O)CCCC)cc1)OP(=O)(O)OP(=O)(O)OC[C@H]1O[C@@H](n2cc(Cl)c(=O)[nH]c2=O)C[C@@H]1F (stereo partly shown) [10dy] | half-life at 0.86 mM | 2.9 h |
| CCCCCCCCCCCCCCCCCCOP(=O)(OCc1ccc(OC(=O)CCCC)cc1)OP(=O)(O)OP(=O)(O)OC[C@@H]1O[C@H](n2cc(F)c(N)nc2=O)CS1 (stereo partly shown) [10cy, γ‐(AB‐C4;alkyl‐C18)‐FTCTP] | half-life at 0.86 mM | 3.4 h |
| CCCCCCCCCCCCCCCCCCOP(=O)(O)OP(=O)(O)OP(=O)(O)OC[C@H]1O[C@@H](n2cc(Cl)c(=O)[nH]c2=O)C[C@@H]1F [20d] | half-life at 0.86 mM | > 20 h |
| CCCCCCCCCCCCCCCCCCOP(=O)(O)OP(=O)(O)OP(=O)(O)OCC1OC(n2cc(C)c(=O)[nH]c2=O)CC1N=[N+]=[N-] (stereo not shown) [20b, γ‐(alkyl‐C18)‐AZTTP] | half-life at 0.86 mM | > 30 h |

====

assay: in vitro
measurementSetup: human
measurementName: half-life at 0.86 mM

| molecule | resultValue |
| --- | --- |
| CCCCCCCCCCCCCCCCCCOP(=O)(OCCCC)OP(=O)(O)OP(=O)(O)OC[C@@H]1O[C@H](n2cc(F)c(N)nc2=O)CS1 (some centres unmarked) [10cv, γ‐(C4;C18)‐FTCTP] | > 600 min |
| CCCCCCCCCCCCCCCCCCOP(=O)(O)OP(=O)(O)OP(=O)(O)OC[C@H]1O[C@@H](n2cc(C)c(=O)[nH]c2=O)C[C@@H]1F [20f, γ‐C18‐FLTTP] | > 1200 min |
| CCCCCCCCCCCCCCCCCCP(=O)(OCCCC)OP(=O)(O)OP(=O)(O)OC[C@H]1O[C@@H](n2cc(C)c(=O)[nH]c2=O)C[C@@H]1N=[N+]=[N-] (some centres unmarked) [10bx] | > 1200 min |
| CCCCCCCCCCCCCCCCCCP(=O)(OCc1ccc(OC(=O)CCCC)cc1)OP(=O)(O)OP(=O)(O)OC[C@@H]1C=C[C@H](n2cnc3c(NC4CC4)nc(N)nc32)C1 (some centres unmarked) [10hz, γ‐(AB‐C4)‐γ‐C‐(alkyl‐C18)‐ABCTP] | 462 min |
| CCCCCCCCCCCCCCCCCCOP(=O)(OCCCC)OP(=O)(O)OP(=O)(O)OC[C@H]1O[C@@H](n2cc(/C=C/Br)c(=O)[nH]c2=O)C[C@@H]1O (some centres unmarked) [10gv] | > 600 min |
| CCCCCCCCCCCCCCCCCCOP(=O)(OCCCC)OP(=O)(O)OP(=O)(O)OC[C@H]1O[C@@H](n2cc(C)c(=O)[nH]c2=O)C[C@@H]1N=[N+]=[N-] (some centres unmarked) [10bv, γ‐(alkyl‐C4;alkyl‐C18)‐AZTTP] | > 1800 min |
| CCCCCCCCCCCCCCCCCCOP(=O)(O)OP(=O)(O)OP(=O)(O)OC[C@@H]1O[C@H](n2cc(F)c(N)nc2=O)CS1 [20c, γ‐C18‐FTCTP] | > 1800 min |
| CCCCCCCCCCCCCCCCCCP(=O)(OCc1ccc(OC(=O)CCCC)cc1)OP(=O)(O)OP(=O)(O)OC[C@H]1O[C@@H](n2cc(C)c(=O)[nH]c2=O)C[C@@H]1N=[N+]=[N-] (some centres unmarked) [10bz, γ‐(AB‐C4)‐γ‐C‐(alkyl‐C18)‐AZTTP] | 480 min |
| CCCCCCCCCCCCCCCCCCOP(=O)(O)OP(=O)(O)OP(=O)(O)OC[C@H]1O[C@@H](n2ccc(=O)[nH]c2=O)C[C@@H]1F [20e, γ‐C18‐FddUTP] | > 1200 min |
| CCCCCCCCCCCCCCCCCCOP(=O)(OCc1ccc(OC(=O)CCCC)cc1)OP(=O)(O)OP(=O)(O)OC[C@@H]1C=C[C@H](n2cnc3c(NC4CC4)nc(N)nc32)C1 (some centres unmarked) [10hy] | 78 min |
| CCCCCCCCCCCCCCCCCCP(=O)(OCc1ccc(OC(=O)CCCC)cc1)OP(=O)(O)OP(=O)(O)OC[C@H]1O[C@@H](n2cc(Cl)c(=O)[nH]c2=O)C[C@@H]1F (some centres unmarked) [10dz] | > 600 min |

====

System: HIV‐2 [ROD]
assay: Anti-HIV activity, HIV-2 in wild-type CEM/0 cells
Type: cell-based
measurementSetup: Human immunodeficiency virus 2, CCRF-CEM; wild-type CEM/0 cells, mean ±SD n = 2–3; read-out: Antiviral activity CEM/0 HIV‐2 [ROD] EC50

| compound | EC50 |
| --- | --- |
| CCCCCCCCCCCCCCCCCCOP(=O)(OCC(CC)CCCC)OP(=O)(O)OP(=O)(O)OC[C@@H]1C=C[C@H](n2cnc3c(NC4CC4)nc(N)nc32)C1 (stereo partly drawn) [10hw] | 180 nM |
| CCCCCCCCCCCCCCCCCCOP(=O)(O)OP(=O)(O)OP(=O)(O)OC[C@H]1O[C@@H](n2cc(/C=C/Br)c(=O)[nH]c2=O)C[C@@H]1O [20g] | > 10000 nM |
| O=c1ccn([C@H]2C[C@H](F)[C@@H](CO)O2)c(=O)[nH]1 [1e (FddU), FddU, reference compound] | 150 nM |
| CCCCCCCCCCCCCCCCCCOP(=O)(OCCCC)OP(=O)(O)OP(=O)(O)OC[C@H]1O[C@@H](n2cc(C)c(=O)[nH]c2=O)C[C@@H]1N=[N+]=[N-] (stereo partly drawn) [10bv, γ‐(alkyl‐C4;alkyl‐C18)‐AZTTP] | 26 nM |
| CCCCCCCCCCCCCCCCCCOP(=O)(OCc1ccc(OC(=O)CCCC)cc1)OP(=O)(O)OP(=O)(O)OC[C@H]1O[C@@H](n2cc(C)c(=O)[nH]c2=O)C[C@@H]1F (stereo partly drawn) [10ey] | 780 nM |
| CCCCCCCCCCCCCCCCCCP(=O)(OCc1ccc(OC(=O)CCCC)cc1)OP(=O)(O)OP(=O)(O)OC[C@H]1O[C@@H](n2cc(Cl)c(=O)[nH]c2=O)C[C@@H]1F (stereo partly drawn) [10dz] | 510 nM |
| CCCCCCCCCCCCCCCCCCOP(=O)(O)OP(=O)(O)OP(=O)(O)OC[C@H]1O[C@@H](n2ccc(=O)[nH]c2=O)C[C@@H]1F [20e, γ‐C18‐FddUTP] | 390 nM |
| O=c1[nH]c(=O)n([C@H]2C[C@H](F)[C@@H](CO)O2)cc1Cl [1d (FddClU), FddClU, reference compound] | 1950 nM |
| CCCCCCCCCCCCCCCCCCP(=O)(OCc1ccc(OC(=O)CCCC)cc1)OP(=O)(O)OP(=O)(O)OC[C@H]1O[C@@H](n2ccc(=O)[nH]c2=O)C[C@@H]1F (stereo partly drawn) [10fz] | 39 nM |
| CCCCCCCCCCCCCCCCCCOP(=O)(OCC(CC)CCCC)OP(=O)(O)OP(=O)(O)OC[C@H]1O[C@@H](n2ccc(=O)[nH]c2=O)C[C@@H]1F (stereo partly drawn) [10fw] | 140 nM |
| CCCCCCCCCCCCCCCCCCOP(=O)(OCCCC)OP(=O)(O)OP(=O)(O)OC[C@@H]1O[C@H](n2cc(F)c(N)nc2=O)CS1 (stereo partly drawn) [10cv, γ‐(C4;C18)‐FTCTP] | 74 nM |
| Nc1nc(=O)n([C@@H]2CS[C@H](CO)O2)cc1F [1c (FTC), FTC, reference compound] | 20 nM |
